Every entry's value here was drawn from paper PMC12527977.

Molecular target: UniProtKB P27487
Sequence (P27487 whole entry): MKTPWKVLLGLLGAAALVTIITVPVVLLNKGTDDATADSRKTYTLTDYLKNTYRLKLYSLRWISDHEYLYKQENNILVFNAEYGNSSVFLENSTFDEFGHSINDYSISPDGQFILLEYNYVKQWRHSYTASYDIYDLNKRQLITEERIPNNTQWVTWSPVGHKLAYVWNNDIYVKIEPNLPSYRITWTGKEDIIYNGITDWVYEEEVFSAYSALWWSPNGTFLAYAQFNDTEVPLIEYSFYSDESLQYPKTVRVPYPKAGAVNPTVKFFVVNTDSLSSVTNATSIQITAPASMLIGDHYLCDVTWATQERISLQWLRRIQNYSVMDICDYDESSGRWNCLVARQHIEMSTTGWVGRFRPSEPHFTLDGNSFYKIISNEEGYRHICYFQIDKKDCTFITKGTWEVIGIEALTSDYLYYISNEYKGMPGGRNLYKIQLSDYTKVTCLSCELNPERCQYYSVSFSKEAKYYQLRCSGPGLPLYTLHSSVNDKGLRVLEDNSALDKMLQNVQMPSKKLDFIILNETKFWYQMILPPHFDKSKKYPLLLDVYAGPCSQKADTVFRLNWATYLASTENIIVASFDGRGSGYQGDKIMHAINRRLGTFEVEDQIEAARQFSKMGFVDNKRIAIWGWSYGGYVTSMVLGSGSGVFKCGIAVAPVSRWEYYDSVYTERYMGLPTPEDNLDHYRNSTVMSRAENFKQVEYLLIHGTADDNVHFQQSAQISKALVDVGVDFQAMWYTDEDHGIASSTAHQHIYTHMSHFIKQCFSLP
Assay: DPP-IV inhibitory activity of peptides (DPP-IV-Glo Protease Assay Kit); further: test concentration or dose not given here
Assay type: biochemical
Design: purchased QiZheng Biotech (Shanghai, China) IBDPP0901
Settings: DPP-IV-Glo Protease Assay Kit; control = 0; replicate 1; sheet S2F; in % (unit assumed)
Where a SMILES comes first, the peptide text is derived from it.
List of DPP-IV inhibitory activity values.

Reference set, count: 3
>  <molecule>
CC(C)C[C@H](NC(=O)[C@H](CCC(N)=O)NC(=O)[C@@H](N)Cc1ccccc1)C(=O)O [FQL] (H-Phe-Gln-Leu-OH)

>  <readout type>
DPP-IV inhibitory activity

>  <measurement>
25.4694

$$$$
>  <molecule>
CC(C)C[C@H](NC(=O)[C@@H](N)CC(C)C)C(=O)N[C@@H](Cc1ccc(O)cc1)C(=O)O [LLY] (H-Leu-Leu-Tyr-OH)

>  <readout type>
DPP-IV inhibitory activity

>  <measurement>
32.8224

$$$$
>  <molecule>
C[C@@H](O)[C@H](NC(=O)[C@@H](N)Cc1ccc(O)cc1)C(=O)NCC(=O)N[C@@H](CC(=O)O)C(=O)O [YTGD] (H-YTGD-OH)

>  <readout type>
DPP-IV inhibitory activity

>  <measurement>
20.1405

$$$$

Exam item: Param item = CC(C)C[C@H](NC(=O)[C@H](CC(N)=O)NC(=O)[C@@H](N)Cc1ccc(O)cc1)C(=O)N1CCC[C@H]1C(=O)O [YNLP] (H-YNLP-OH) ; retrieve measured DPP-IV inhibitory activity.
Marked response: 22.415

Exam item: Param item = CC(C)C[C@H](N)C(=O)N[C@@H](CC(N)=O)C(=O)N[C@@H](C)C(=O)N1CCC[C@H]1C(=O)O [LNAP] (H-LNAP-OH) ; retrieve measured DPP-IV inhibitory activity.
Marked response: 13.9411

Exam item: Param item = NC(=O)CC[C@H](NC(=O)[C@@H]1CCCN1C(=O)[C@@H](N)Cc1ccccc1)C(=O)N[C@@H](CO)C(=O)O [FPQS] (H-FPQS-OH) ; retrieve measured DPP-IV inhibitory activity.
Marked response: 35.1258

Exam item: Param item = CC(C)C[C@H](NC(=O)[C@@H](N)Cc1c[nH]c2ccccc12)C(=O)N[C@@H](CCC(=O)O)C(=O)O [WLE] (H-Trp-Leu-Glu-OH) ; retrieve measured DPP-IV inhibitory activity.
Marked response: 21.3239

Exam item: Param item = CC(C)[C@H](N)C(=O)N[C@@H](C)C(=O)N[C@@H](CC(=O)O)C(=O)N[C@@H](Cc1c[nH]c2ccccc12)C(=O)O [VADW] (H-VADW-OH) ; retrieve measured DPP-IV inhibitory activity.
Marked response: 63.2506

Exam item: Param item = N[C@@H](Cc1c[nH]c2ccccc12)C(=O)N[C@@H](CC(=O)O)C(=O)N[C@@H](CO)C(=O)N[C@@H](Cc1ccc(O)cc1)C(=O)O [WDSY] (H-WDSY-OH) ; retrieve measured DPP-IV inhibitory activity.
Marked response: 82.2499

Exam item: Param item = CSCC[C@H](NC(=O)[C@H](CC(C)C)NC(=O)[C@H](CCC(N)=O)NC(=O)[C@@H](N)Cc1ccc(O)cc1)C(=O)O [YQLM] (H-YQLM-OH) ; retrieve measured DPP-IV inhibitory activity.
Marked response: 41.3327

Exam item: Param item = CSCC[C@H](NC(=O)[C@H](C)NC(=O)[C@@H](N)C(C)C)C(=O)N1CCC[C@H]1C(=O)O [VAMP] (H-VAMP-OH) ; retrieve measured DPP-IV inhibitory activity.
Marked response: 68.9829

Exam item: Param item = C[C@H](NC(=O)[C@H](Cc1ccc(O)cc1)NC(=O)[C@H](CO)NC(=O)[C@@H](N)Cc1ccc(O)cc1)C(=O)O [YSYA] (H-YSYA-OH) ; retrieve measured DPP-IV inhibitory activity.
Marked response: 27.0679

Exam item: Param item = CC(C)C[C@H](NC(=O)[C@@H](N)Cc1ccccc1)C(=O)N[C@@H](CCC(N)=O)C(=O)O [FLQ] (H-Phe-Leu-Gln-OH) ; retrieve measured DPP-IV inhibitory activity.
Marked response: 25.2277
